# System: κ-opioid receptor (Homo sapiens, UniProt P41145)
# Sequence (P41145 whole entry): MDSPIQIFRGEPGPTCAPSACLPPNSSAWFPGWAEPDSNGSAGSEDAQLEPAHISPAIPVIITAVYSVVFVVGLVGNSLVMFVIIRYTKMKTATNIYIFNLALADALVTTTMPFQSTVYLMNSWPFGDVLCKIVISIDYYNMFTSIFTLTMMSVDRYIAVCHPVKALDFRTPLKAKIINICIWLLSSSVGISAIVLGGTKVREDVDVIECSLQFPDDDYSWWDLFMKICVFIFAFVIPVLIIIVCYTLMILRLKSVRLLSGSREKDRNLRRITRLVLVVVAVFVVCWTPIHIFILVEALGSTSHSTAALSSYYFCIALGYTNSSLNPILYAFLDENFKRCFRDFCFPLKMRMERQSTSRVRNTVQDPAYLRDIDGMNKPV
# Run description: κ-opioid receptor β-Arr2 activity response, U2OS cells
# Format: cell-based
# Parameters: expressed in transfected cells; host or cells: U-2 OS
# Condition description: U2OS cells

| Compound | Emax, % |
| --- | --- |
| C[C@H]1[C@H]2Cc3ccc(O)cc3[C@]1(CCNS(C)(=O)=O)CCN2CC1CC1 [Compound 3] | -0.33 |
| C[C@H]1[C@H]2Cc3ccc(O)cc3[C@]1(CCCC(N)=O)CCN2CC1CCC1 [Compound 29] | 45 |
| COc1ccc2c(c1)[C@]1(CCOCc3ccccc3)CCN(C)[C@H](C2)[C@@H]1C [Compound 48] | 64.3 |
| C[C@H]1[C@H]2Cc3ccc(O)cc3[C@]1(CCNC(=O)Nc1ccc(C(=O)O)cc1)CCN2CC1CC1 [Compound 2] | 28.7 |
| CC(C)C[C@H](NCCCC[C@]12CCN(CC3CC3)[C@H](Cc3ccc(O)cc31)[C@@H]2C)C(=O)O [Compound 24] | 54 |

* * *

# System: UniProtKB P41145
# Run description: κ-opioid receptor radioligand binding assay ([3H]-U69,593)
# Set-up: expressed in transfected cells; host or cells: HEK-293
# Condition description: HEK-293 or CHO cells; read-out: Ki (nM) Opioid Receptor κ
# Experimental: κ-opioid Receptor Binding Assay Procedures: Membranes from recombinant HEK-293 cells expressing the human κ opioid receptor (κ) (cloned in house) were prepared by lysing cells in ice cold hypotonic buffer (2.5 mM MgCl2, 50 mM HEPES, pH 7.4) (10 mL/10 cm dish) followed by homogenization with a tissue grinder/Teflon pestle. […] Protein concentrations were determined using the BioRad protein assay reagent with bovine serum albumen as standard. […]

| Record smiles | System | Unit | Ki |
| --- | --- | --- | --- |
| CC(C)C[C@H](NCCCC[C@]12CCN(CC3CC3)[C@H](Cc3ccc(O)cc31)[C@@H]2C)C(=O)O | UniProtKB P41145 | nM | 0.55 |
| C[C@H]1[C@H]2Cc3ccc(O)cc3[C@]1(CCNS(C)(=O)=O)CCN2C | UniProtKB P41145 | nM | 20.5 |
| COc1ccc2c(c1)[C@]1(CCNC3(C(=O)O)CC3)CCN(CC3CC3)[C@H](C2)[C@@H]1C | UniProtKB P41145 | nM | 286 |
| CC(C)[C@H](NCC[C@@]12CCN(CC3CC3)[C@@H](Cc3ccc(O)cc31)[C@H]2C)C(=O)O | UniProtKB P41145 | nM | 2620 |
| C[C@H]1[C@H]2Cc3ccc(O)cc3[C@]1(CCNC(=O)Nc1ccc(C(=O)O)cc1)CCN2CC1CC1 | UniProtKB P41145 | nM | 7.08 |
| C[C@H]1[C@H]2Cc3ccc(O)cc3[C@]1(CCCCN[C@@H](CCCCN)C(=O)O)CCN2CC1CC1 | UniProtKB P41145 | nM | 0.077 |
| COC(=O)[C@H](CCCCN)NCCCC[C@]12CCN(CC3CC3)[C@H](Cc3ccc(O)cc31)[C@@H]2C | UniProtKB P41145 | nM | 0.053 |
| C[C@H]1[C@H]2Cc3ccc(O)cc3[C@]1(CCNC(=O)Cc1ccc(C(=O)O)cc1)CCN2CC1CC1 | UniProtKB P41145 | nM | 18.4 |

* * *

# System: μ-opioid receptor (Homo sapiens)
# Run description: biochemical
# Design: purchased Perkin Elmer, Shelton, Conn; host or cells: HEK-293 or CHO
# Condition description: HEK-293 or CHO cells; relative to DAMGO; read-out: GTPγS μ Emax
Assign a class from recorded Emax; defined classes: range A (below 20%), range B (20% to below 40%), range C (40% or more)

| Record smiles | Qualitative label |
| --- | --- |
| C[C@H]1[C@H]2Cc3ccc(O)cc3[C@]1(CCO)CCN2C | range C |
| C[C@H]1[C@H]2Cc3ccc(O)cc3[C@]1(CCN1CCCC1)CCN2C | range C |
| COc1ccc2c(c1)[C@@]1(CCNC3(C(=O)O)CC3)CCN(CC3CC3)[C@@H](C2)[C@H]1C | range A |
| COc1ccc2c(c1)[C@@]1(CCN[C@H](C(=O)O)C(C)C)CCN(CC3CC3)[C@@H](C2)[C@H]1C | range A |
| C[C@H]1[C@H]2Cc3ccc(O)cc3[C@]1(CCOc1cncc(C(=O)O)c1)CCN2C | range B |
| C[C@H]1[C@H]2Cc3ccc(O)cc3[C@]1(CCNS(=O)(=O)c1ccc(F)cc1)CCN2C | range C |
| COC(=O)[C@H](C)NCC[C@]12CCN(CC3CC3)[C@H](Cc3ccc(OC)cc31)[C@@H]2C | range A |
| C[C@H]1[C@H]2Cc3ccc(O)cc3C1(CCNS(=O)(=O)N(C)C)CCN2C | range B |
| C[C@H]1[C@H]2Cc3ccc(O)cc3[C@]1(CCCC(N)=O)CCN2CC1CCC1 | range A |
| COc1ccc2c(c1)[C@]1(CCNC(=O)NS(=O)(=O)c3ccc(F)cc3)CCN(C)[C@H](C2)[C@@H]1C | range B |
| C[C@H]1[C@H]2Cc3ccc(O)cc3[C@]1(CCNC(=O)Nc1ccc(F)cc1)CCN2CC1CC1 | range B |
| C[C@H]1[C@H]2Cc3ccc(O)cc3[C@]1(CCNC(=O)[C@@H]1CCC(=O)N1)CCN2CC1CC1 | range A |
| C[C@@H]1[C@@H]2Cc3ccc(O)cc3[C@@]1(CCN1CCC(N(C3CC3)S(=O)(=O)c3ccccc3)CC1)CCN2C | range C |
| C[C@H]1[C@H]2Cc3ccc(O)cc3[C@]1(CCNC(=O)CCc1ccccc1)CCN2C | range C |
| C[C@H]1[C@H]2Cc3ccc(O)cc3[C@]1(CCNC(=O)[C@@H]1CCCCN1)CCN2C | range B |
| C[C@H]1[C@H]2Cc3ccc(O)cc3[C@]1(CCNC(=O)NS(=O)(=O)c1ccccc1)CCN2C | range B |

* * *

# System: μ-opioid receptor (Homo sapiens, UniProt P35372)
# Sequence (P35372 whole entry, species assumed): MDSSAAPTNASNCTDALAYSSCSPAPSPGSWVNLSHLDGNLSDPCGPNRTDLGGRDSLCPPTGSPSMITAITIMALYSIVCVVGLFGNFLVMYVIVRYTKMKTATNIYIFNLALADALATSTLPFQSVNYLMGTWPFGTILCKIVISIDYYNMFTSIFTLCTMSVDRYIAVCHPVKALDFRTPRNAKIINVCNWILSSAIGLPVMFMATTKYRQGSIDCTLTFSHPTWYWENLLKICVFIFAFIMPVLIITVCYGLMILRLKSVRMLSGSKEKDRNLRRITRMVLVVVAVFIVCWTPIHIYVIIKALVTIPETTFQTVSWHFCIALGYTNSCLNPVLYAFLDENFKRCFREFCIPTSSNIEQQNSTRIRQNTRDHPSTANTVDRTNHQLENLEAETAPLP
# Run description: μ-opioid receptor GTPγS functional assay, U2OS cells
pEC50: −log10 of the molar value.
This section presents compounds with their documented pEC50 values.

| Compound | System | pEC50 |
| --- | --- | --- |
| COC(=O)[C@H](Cc1ccccc1)NCCCC[C@]12CCN(CC3CC3)[C@H](Cc3ccc(O)cc31)[C@@H]2C [Compound 27] | μ-opioid receptor (Homo sapiens, UniProt P35372) | 9.57 |
| COc1ccc2c(c1)[C@]1(CCNC(=O)[C@@H]3CCCN3C(C)=O)CCN(CC3CC3)[C@H](C2)[C@@H]1C [Compound 5] | μ-opioid receptor (Homo sapiens, UniProt P35372) | 6.20 |
| C[C@H]1[C@H]2Cc3ccc(O)cc3[C@]1(CCN1CCN(C(c3ccc(F)cc3)c3ccc(F)cc3)CC1)CCN2C [Compound 8] | μ-opioid receptor (Homo sapiens, UniProt P35372) | 7.14 |
| C[C@H]1[C@H]2Cc3ccc(O)cc3C1(CCNS(=O)(=O)N(C)C)CCN2CC1CC1 [Compound 9] | μ-opioid receptor (Homo sapiens, UniProt P35372) | 9.17 |
| COC(=O)[C@H](C)NCC[C@]12CCN(CC3CC3)[C@H](Cc3ccc(OC)cc31)[C@@H]2C [Compound 38] | μ-opioid receptor (Homo sapiens, UniProt P35372) | 6.86 |
| C[C@H]1[C@H]2Cc3ccc(O)cc3[C@]1(CC(=O)N1CCC(N(C3CC3)S(=O)(=O)c3ccc(Cl)cc3)CC1)CCN2C [Compound 61] | μ-opioid receptor (Homo sapiens, UniProt P35372) | 6.84 |
| COc1ccc2c(c1)[C@]1(CCO)CCN(CC3CC3)[C@H](C2)[C@@H]1C [Compound 43] | μ-opioid receptor (Homo sapiens, UniProt P35372) | 7.00 |
| C[C@H]1[C@H]2Cc3ccc(O)cc3[C@]1(CCN1CCC(N(C3CC3)S(=O)(=O)c3ccc(Cl)cc3)CC1)CCN2C [Compound 58] | μ-opioid receptor (Homo sapiens, UniProt P35372) | 7.69 |

* * *

This section presents compounds with their documented Emax values.
# System: κ-opioid receptor (Homo sapiens, UniProt P41145)
# Run description: κ-opioid receptor GTPγS functional assay, U2OS cells
# Format: biochemical
# Design: expressed in transfected cells; host or cells: U-2 OS
# Condition description: U2OS cells
Measured property: Emax (%)

| Compound | System | Recorded value |
| --- | --- | --- |
| C[C@H]1[C@H]2Cc3ccc(O)cc3[C@]1(CCCCN[C@@H](Cc1ccccc1)C(N)=O)CCN2CC1CC1 [Compound 23] | κ-opioid receptor (Homo sapiens, UniProt P41145) | 104 |
| COc1ccc2c(c1)[C@]1(CCNCCCn3ccnc3)CCN(C)[C@H](C2)[C@@H]1C [Compound 55] | κ-opioid receptor (Homo sapiens, UniProt P41145) | 113 |
| COc1ccc2c(c1)[C@@]1(CCO)CCN(C)[C@@H](C2)[C@H]1C [Compound 49] | κ-opioid receptor (Homo sapiens, UniProt P41145) | 41 |
| C[C@H]1[C@H]2Cc3ccc(O)cc3[C@]1(CCNC(=O)Cc1ccc(C(=O)O)cc1)CCN2CC1CC1 [Compound 31] | κ-opioid receptor (Homo sapiens, UniProt P41145) | 104 |

Where these numbers come from: patent US10130615B2
